# log10 IC50 per record follows
Molecular target: Human SGLT2 (hSGLT2) (Homo sapiens)
Sequence (P31639 1-672): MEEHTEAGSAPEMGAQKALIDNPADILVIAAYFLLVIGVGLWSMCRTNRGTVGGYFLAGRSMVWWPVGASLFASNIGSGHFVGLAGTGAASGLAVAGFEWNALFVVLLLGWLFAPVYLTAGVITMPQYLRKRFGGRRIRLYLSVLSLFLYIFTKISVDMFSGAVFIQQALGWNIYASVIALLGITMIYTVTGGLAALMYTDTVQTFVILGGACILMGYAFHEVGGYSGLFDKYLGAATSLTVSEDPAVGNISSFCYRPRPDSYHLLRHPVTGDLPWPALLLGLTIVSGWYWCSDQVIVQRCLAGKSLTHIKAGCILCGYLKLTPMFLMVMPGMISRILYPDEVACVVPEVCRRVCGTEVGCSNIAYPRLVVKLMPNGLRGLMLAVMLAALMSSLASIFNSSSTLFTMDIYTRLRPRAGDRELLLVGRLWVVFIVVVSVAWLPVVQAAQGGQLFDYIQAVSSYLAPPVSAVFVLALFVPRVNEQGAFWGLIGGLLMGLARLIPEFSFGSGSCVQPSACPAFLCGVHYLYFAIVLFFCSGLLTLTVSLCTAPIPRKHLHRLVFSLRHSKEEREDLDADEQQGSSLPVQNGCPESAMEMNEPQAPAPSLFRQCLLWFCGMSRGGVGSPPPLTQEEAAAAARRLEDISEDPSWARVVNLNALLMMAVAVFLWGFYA
Test: Sodium-dependent glucose transport (14C-AMG uptake) assay in CHO cells stably expressing hSGLT2
Conditions: CHO cells expressing hSGLT2, 14C-AMG uptake, 37° C. for 2 h; single determinations; read-out: hSGLT2 Inhibitory Activity IC50
Excerpt: Cloning and Cell Line Construction for Human SGLT2 Human SGLT2 (hSGLT2) gene was amplified by PCR from cDNA-Human Adult Normal Tissue Kidney (Invitrogen). The hSGLT2 sequence was cloned into pcDNA3.1(+) for mammalian expression and were stably transfected into chinese hamster ovary (CHO) cells. SGLT2-expressing clones were selected based on resistance to G418 antibiotic (Geneticin) and activity in the ^14C-α-methyl-D-glucopyranoside (^14C-AMG) uptake assay. […]
Metric: log10 IC50 (log10 of the value in µM)

{"columns": ["Compound", "log10 IC50"],
 "data": [
  ["CCCCc1cnc(Cc2cc([C@@H]3O[C@H](CO)[C@@H](O)[C@H](O)[C@H]3O)c(Cl)cc2Cl)s1 [Example 66]", -1.22],
  ["CCCOc1cnc(Cc2cc([C@@H]3O[C@H](CO)[C@@H](O)[C@H](O)[C@H]3O)ccc2Cl)s1 [Example 22]", -1.91],
  ["OC[C@H]1O[C@@H](c2ccc(C(F)(F)F)c(Cc3ncc(-c4ccc(F)cc4)s3)c2)[C@H](O)[C@@H](O)[C@@H]1O [Example 52]", -1.06],
  ["OC[C@H]1O[C@@H](c2ccc(Cl)c(Cc3ncc(-c4ccoc4)s3)c2)[C@H](O)[C@@H](O)[C@@H]1O [Example 6]", -2.20],
  ["CCOC(=O)OC[C@H]1O[C@@H](c2ccc(Cl)c(Cc3ncc(-c4ccco4)s3)c2)[C@H](O)[C@@H](O)[C@@H]1O [Example 160]", -1.62],
  ["CCCCCOc1cnc(Cc2cc([C@@H]3O[C@H](CO)[C@@H](O)[C@H](O)[C@H]3O)ccc2Cl)s1 [Example 23]", -2.09],
  ["OC[C@H]1O[C@@H](c2ccc(C3CC3)c(Cc3ncc(-c4ccco4)s3)c2)[C@H](O)[C@@H](O)[C@@H]1O [Example 110]", -1.26],
  ["Cc1ccc([C@@H]2O[C@H](CO)[C@@H](O)[C@H](O)[C@H]2O)cc1Cc1ncc(-c2ccco2)s1 [Example 30]", -2.84],
  ["OC[C@H]1O[C@@H](c2ccc(Cl)c(Cc3ncc(C4CCCCC4)s3)c2)[C@H](O)[C@@H](O)[C@@H]1O [Example 20]", -1.60],
  ["OC[C@H]1O[C@@H](c2cccc(Cc3ncc(-c4ccco4)s3)c2)[C@H](O)[C@@H](O)[C@@H]1O [Example 111]", -1.65],
  ["COc1cc(Cl)c(Cc2ncc(C3CCCC3)s2)cc1[C@@H]1O[C@H](CO)[C@@H](O)[C@H](O)[C@H]1O [Example 76]", -2.03],
  ["OC[C@H]1O[C@@H](c2cc(Cc3ncc(-c4ccco4)s3)c3ccccc3c2)[C@H](O)[C@@H](O)[C@@H]1O [Example 104]", -1.00],
  ["OC[C@H]1O[C@@H](c2ccc(Br)c(Cc3ncc(-c4ccco4)s3)c2)[C@H](O)[C@@H](O)[C@@H]1O [Example 46]", -2.72],
  ["COc1cc(Cl)c(Cc2ncc(-c3ccc(F)cc3)s2)cc1[C@@H]1O[C@H](CO)[C@@H](O)[C@H](O)[C@H]1O [Example 74]", -2.22],
  ["OC[C@H]1O[C@@H](c2cn(Cc3ncc(-c4ccccc4)s3)c3ccccc23)[C@H](O)[C@@H](O)[C@@H]1O [Example 137]", -0.91],
  ["Cc1ccc([C@@H]2O[C@H](CO)[C@@H](O)[C@H](O)[C@H]2O)cc1Cc1ncc(-c2nccs2)s1 [Example 34]", -2.24],
  ["OC[C@H]1O[C@@H](c2cc(Cc3ncc(-c4ccco4)s3)c(Cl)cc2OCCn2cncn2)[C@H](O)[C@@H](O)[C@@H]1O [Example 122]", -0.88],
  ["OC[C@H]1O[C@@H](c2ccc(Cl)c(Cc3cnc(-c4ccsc4)s3)c2)[C@H](O)[C@@H](O)[C@@H]1O [Example 190]", -3.05],
  ["OCCOc1cc(Cl)c(Cc2ncc(-c3ccco3)s2)cc1[C@@H]1O[C@H](CO)[C@@H](O)[C@H](O)[C@H]1O [Example 121]", -2.82],
  ["COc1cc(Cl)c(Cc2ncc(-c3ccsc3)s2)cc1[C@@H]1O[C@H](CO)[C@@H](O)[C@H](O)[C@H]1O [Example 72]", -2.89],
  ["OC[C@H]1O[C@@H](c2ccc(Cl)c(C3(c4ncc(-c5cccs5)s4)CC3)c2)[C@H](O)[C@@H](O)[C@@H]1O [Example 29]", -1.41],
  ["COc1cc(Cl)c(Cc2ncc(-c3ccoc3)s2)cc1[C@@H]1O[C@H](CO)[C@@H](O)[C@H](O)[C@H]1O [Example 70]", -2.13],
  ["CCCc1cnc(Cc2cc([C@@H]3O[C@H](CO)[C@@H](O)[C@H](O)[C@H]3O)c(Cl)cc2Cl)s1 [Example 65]", -1.36],
  ["CCCCSc1cnc(Cc2cc([C@@H]3O[C@H](CO)[C@@H](O)[C@H](O)[C@H]3O)ccc2Cl)s1 [Example 26]", -1.23]
]}

* * *

target: Human SGLT2 (hSGLT2) (Homo sapiens); experiment: Sodium-dependent glucose transport (14C-AMG uptake) assay in CHO cells stably expressing hSGLT2; details: CHO cells expressing hSGLT2, 14C-AMG uptake, 37° C. for 2 h; single determinations; read-out: hSGLT2 Inhibitory Activity IC50
pIC50: −log10 of the molar value.
Classification field: Satisfied = pIC50 at or over 8; Not satisfied = pIC50 under 8.

{"columns": ["Query smiles", "Subject of test", "Classification"],
 "data": [
  ["OC[C@H]1O[C@@H](c2ccc(C(F)(F)F)c(Cc3ncc(-c4ccccc4)s3)c2)[C@H](O)[C@@H](O)[C@@H]1O", "Human SGLT2 (hSGLT2) (Homo sapiens)", "Not satisfied"],
  ["OC[C@H]1O[C@@H](c2cc(Cc3ncc(-c4ccc(F)cc4)s3)c(O)c3ccccc23)[C@H](O)[C@@H](O)[C@@H]1O", "Human SGLT2 (hSGLT2) (Homo sapiens)", "Not satisfied"],
  ["OC[C@H]1O[C@]2(OCc3cc(Cl)c(C4(c5ncc(-c6cccs6)s5)CC4)cc32)[C@H](O)[C@@H](O)[C@@H]1O", "Human SGLT2 (hSGLT2) (Homo sapiens)", "Not satisfied"],
  ["O=C(OCc1ccccc1)OC[C@H]1O[C@@H](c2ccc(Cl)c(Cc3ncc(-c4ccco4)s3)c2)[C@H](O)[C@@H](O)[C@@H]1O", "Human SGLT2 (hSGLT2) (Homo sapiens)", "Satisfied"],
  ["CCCCCSc1cnc(Cc2cc([C@@H]3O[C@H](CO)[C@@H](O)[C@H](O)[C@H]3O)ccc2Cl)s1", "Human SGLT2 (hSGLT2) (Homo sapiens)", "Not satisfied"],
  ["OC[C@H]1O[C@@H](c2ccc(Cl)c(Cc3cnc(-c4ccccc4)s3)c2)[C@H](O)[C@@H](O)[C@@H]1O", "Human SGLT2 (hSGLT2) (Homo sapiens)", "Satisfied"],
  ["Cc1cnc(Cc2cn([C@@H]3O[C@H](CO)[C@@H](O)[C@H](O)[C@H]3O)c3ccccc23)s1", "Human SGLT2 (hSGLT2) (Homo sapiens)", "Not satisfied"]
]}
